Recorded IC50 by entry
Tested on: HeLa
measurementProtocol: Antiproliferative activity against human HeLa cells after 48 hrs by MTT assay
Assay type: functional, cell-based
readout: IC50 (µM)

INSERT INTO measurements (compound, readout, measvalue) VALUES
  ('Cc1ccc(-c2cc(COC(=O)COc3cc(O)c4c(=O)cc(-c5ccccc5)oc4c3)nn2-c2ccc(C)cc2)cc1', 'IC50', 2.87),
  ('Cc1cccc(-c2cc(COC(=O)COc3cc(O)c4c(=O)cc(-c5ccccc5)oc4c3)nn2-c2ccccc2)c1', 'IC50', 1.95),
  ('O=c1cc(-c2ccccc2)oc2cc(O)cc(O)c12', 'IC50', 25.1),
  ('O=C(COc1cc(O)c2c(=O)cc(-c3ccccc3)oc2c1)OCc1cc(-c2ccccc2)n(-c2ccccc2)n1', 'IC50', 2.41),
  ('O=C(COc1cc(O)c2c(=O)cc(-c3ccccc3)oc2c1)OCc1cc(-c2ccc(Cl)cc2)n(-c2ccccc2)n1', 'IC50', 1.65),
  ('Cc1ccc(-c2cc(COC(=O)COc3cc(O)c4c(=O)cc(-c5ccccc5)oc4c3)nn2-c2ccc(Cl)cc2)cc1', 'IC50', 12.4),
  ('Cc1ccc(-n2nc(COC(=O)COc3cc(O)c4c(=O)cc(-c5ccccc5)oc4c3)cc2-c2ccc(Br)cc2)cc1', 'IC50', 24.7),
  ('O=C(COc1cc(O)c2c(=O)cc(-c3ccccc3)oc2c1)OCc1cc(-c2ccc(C(F)(F)F)cc2)n(-c2ccccc2)n1', 'IC50', 6.61);

* * *

Test system: HeLa
measurementProtocol: Antiproliferative activity against human HeLa cells after 48 hrs by MTT assay
Assay type: functional, cell-based
readout: IC50 (µM)

INSERT INTO results (compound, qualifieroperator, measvalue) VALUES
  ('O=C(COc1cc(O)c2c(=O)cc(-c3ccccc3)oc2c1)OCc1cc(-c2ccc(Cl)c(Cl)c2)n(-c2ccc(Cl)cc2)n1', '=', 4.72),
  ('O=C(COc1cc(O)c2c(=O)cc(-c3ccccc3)oc2c1)OCc1cc(-c2cccc([N+](=O)[O-])c2)n(-c2ccccc2)n1', '=', 30.9),
  ('Cc1ccc(-n2nc(COC(=O)COc3cc(O)c4c(=O)cc(-c5ccccc5)oc4c3)cc2-c2ccc(F)cc2)cc1', '>', 100),
  ('Cc1ccc(-n2nc(COC(=O)COc3cc(O)c4c(=O)cc(-c5ccccc5)oc4c3)cc2-c2cccc(C)c2)cc1', '=', 1.31),
  ('O=C(COc1cc(O)c2c(=O)cc(-c3ccccc3)oc2c1)OCc1cc(-c2ccc(F)cc2)n(-c2ccccc2)n1', '>', 100),
  ('COc1cccc(-c2cc(COC(=O)COc3cc(O)c4c(=O)cc(-c5ccccc5)oc4c3)nn2-c2ccccc2)c1', '=', 13.6),
  ('Cc1ccc(-n2nc(COC(=O)COc3cc(O)c4c(=O)cc(-c5ccccc5)oc4c3)cc2-c2ccc(C(F)(F)F)cc2)cc1', '=', 4.32),
  ('COc1ccc(-c2cc(COC(=O)COc3cc(O)c4c(=O)cc(-c5ccccc5)oc4c3)nn2-c2ccccc2)cc1', '=', 2.72),
  ('Cc1ccc(-n2nc(COC(=O)COc3cc(O)c4c(=O)cc(-c5ccccc5)oc4c3)cc2-c2ccc(Cl)c(Cl)c2)cc1', '=', 6.06),
  ('Cc1ccc(-n2nc(COC(=O)COc3cc(O)c4c(=O)cc(-c5ccccc5)oc4c3)cc2-c2ccc([N+](=O)[O-])cc2)cc1', '=', 18.4),
  ('Cc1cccc(-c2cc(COC(=O)COc3cc(O)c4c(=O)cc(-c5ccccc5)oc4c3)nn2-c2ccc(Cl)cc2)c1', '=', 4.06),
  ('COc1ccc(-c2cc(COC(=O)COc3cc(O)c4c(=O)cc(-c5ccccc5)oc4c3)nn2-c2ccc(C)cc2)cc1', '=', 1.12),
  ('O=C(COc1cc(O)c2c(=O)cc(-c3ccccc3)oc2c1)OCc1cc(-c2ccc([N+](=O)[O-])cc2)n(-c2ccccc2)n1', '=', 2.04),
  ('O=C(COc1cc(O)c2c(=O)cc(-c3ccccc3)oc2c1)OCc1cc(-c2cccc(F)c2)n(-c2ccccc2)n1', '=', 2.81),
  ('O=C(COc1cc(O)c2c(=O)cc(-c3ccccc3)oc2c1)OCc1cc(-c2ccc(Br)cc2)n(-c2ccccc2)n1', '=', 6.67);
